# assay.target: T1, human GIP receptor (human, UniProt P48546 22-466)
# T1 sequence (looked up): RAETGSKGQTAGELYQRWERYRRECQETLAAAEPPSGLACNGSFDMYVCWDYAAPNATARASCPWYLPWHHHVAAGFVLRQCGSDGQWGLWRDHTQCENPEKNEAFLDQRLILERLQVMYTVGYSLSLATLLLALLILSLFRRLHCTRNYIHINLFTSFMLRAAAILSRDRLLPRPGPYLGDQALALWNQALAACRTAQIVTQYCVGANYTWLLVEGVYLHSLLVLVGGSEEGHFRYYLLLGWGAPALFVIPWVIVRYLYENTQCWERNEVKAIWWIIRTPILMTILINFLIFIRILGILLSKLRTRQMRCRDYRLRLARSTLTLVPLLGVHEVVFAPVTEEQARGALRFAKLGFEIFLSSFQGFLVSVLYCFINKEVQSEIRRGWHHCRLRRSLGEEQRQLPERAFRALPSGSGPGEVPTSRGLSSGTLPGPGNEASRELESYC
# assay: cell-based or functional assay
Bridges are numbered along the chain shown (N, C = ends). Where no end group is shown, it is not given here. [ ]: non-standard residue; d: D form. The star is where a group is joined. Acetyl(2-(4-imidazolyl)) = O=C(Cc1c[nH]cn1)*; Aib = CC(C)(N)C(=O)O

binder	qualifier.symbol	In vitro activity (%) vs. GIP, cAMP EC50
{Acetyl(2-(4-imidazolyl))}-[Aib]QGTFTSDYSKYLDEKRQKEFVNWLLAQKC (bridge 15-19) [triple agonist of SEQ ID NO: 93]	=	0.7
{Acetyl(2-(4-imidazolyl))}-[Aib]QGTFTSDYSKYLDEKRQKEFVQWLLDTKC (bridge 15-19) [triple agonist of SEQ ID NO: 89]	<	0.1
[Acetyl(2-(4-imidazolyl))][Aib]QGTFTSDYSICMDEKHQKDFVNWLLNTK (bridge 16-20; ends not checked) [triple agonist of SEQ ID NO: 59]	=	4
Y[Aib]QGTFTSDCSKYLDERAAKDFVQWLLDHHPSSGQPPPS (bridge 16-20; ends not checked) [triple agonist of SEQ ID NO: 72]	=	1.6
Y[Aib]QGTFTSDYSKYLDEKAAKDFVQWLLDHHPSSGQPPPSC (bridge 16-20) [triple agonist of SEQ ID NO: 77]	=	35.5
